The reported measurements were obtained from PubChem BioAssay (EPA / NIEHS).

Read-out: Tumor necrosis factor (Homo sapiens)
Test: BSK_LPS_TNFa: BioMAP Diversity Plus: LPS Assay for Tumour Necrosis Factor alpha (TNFa) Biomarker Activity (AID 2283085)
Settings: primary human HUVEC with PBMC; actives raise or lower the signal
Calls of active or inactive are those of the source. Rule for the calls: active = hit-call score of the fitted dose curve at least 0.9, where 1 is the maximum; inactive = score below 0.9.
Classes used: Yes = active, No = inactive

- CNC(=S)S: Yes
- CCCCNC(=O)n1c(NC(=O)OC)nc2ccccc21: No
- Oc1ccccc1-c1ccccc1: Yes
- CCOP(=S)(OCC)SCn1c(=O)oc2cc(Cl)ccc21: Yes
- CCOC(=O)CC(SP(=S)(OC)OC)C(=O)OCC (stereo not given): No
- COc1ccc(C(c2ccc(OC)cc2)C(Cl)(Cl)Cl)cc1: Yes
- COc1cnc(OC)n2nc(NS(=O)(=O)c3c(OCC(F)F)cccc3C(F)(F)F)nc12: No
- C=CCC1=C(C)C(OC(=O)C2C(C=C(C)C)C2(C)C)CC1=O (stereo not given): Yes
- CC1COC(Cn2cncn2)(c2ccc(Oc3ccc(Cl)cc3)cc2Cl)O1 (stereo not given): Yes
- C=CCC1=C(C)[C@@H](OC(=O)[C@@H]2[C@@H](C=C(C)C)C2(C)C)CC1=O: Yes
- CCOc1cc(Oc2ccc(C(F)(F)F)cc2Cl)ccc1[N+](=O)[O-]: No
- CCOC(=O)C(Cl)Cc1cc(-n2nc(C)n(C(F)F)c2=O)c(F)cc1Cl (stereo not given): No
- CCNc1nc(Cl)nc(NCC)n1: Yes
- COC(=O)C(C)Oc1ccc(Oc2ccc(Cl)cc2Cl)cc1 (stereo not given): No
- OC(c1ccc(Cl)cc1)(c1cncnc1)c1ccccc1Cl (stereo not given): Yes
- CON(C)C(=O)Nc1ccc(Cl)c(Cl)c1: No
- CS/C(C)=N/OC(=O)N(C)SN(C)C(=O)O/N=C(\C)SC: Yes
- CCCC1COC(Cn2cncn2)(c2ccc(Cl)cc2Cl)O1 (stereo not given): No
- COP(=S)(OC)Oc1nc(Cl)c(Cl)cc1Cl: Yes
- COC(=O)C=C(C)OP(=O)(OC)OC: No
- CCCCC(CC)COC(=O)c1ccccc1C(=O)OCC(CC)CCCC (stereo not given): Yes
- Cc1cc(Cl)ccc1OCC(=O)O: No
- CC(C)(C)c1ccc(CSc2cnn(C(C)(C)C)c(=O)c2Cl)cc1: No
- CCNc1nc(Cl)nc(NC(C)C)n1: Yes
- CC(C)Oc1cc(-n2nc(C(C)(C)C)oc2=O)c(Cl)cc1Cl: Yes

====

Read-out: xenobiotic metabolism (CYP1A1), CYP1A1 (gene 1543)
Assay: CLD_CYP1A1_6hr: CellzDirect (CLD) Gene Expression Assay for xenobiotic metabolism (CYP1A1) at 6 hours (AID 2283661)
Results filed as inconclusive are left out. The source made the active and inactive calls. How the source made its calls: active means hit-call score of the fitted dose curve at least 0.9, where 1 is the maximum; inconclusive means response in the unintended direction; inactive means score below 0.9.
Classes used: active, inactive

- COc1cnc(OC)n2nc(NS(=O)(=O)c3c(OCC(F)F)cccc3C(F)(F)F)nc12: active
- COC(=O)C=C(C)OP(=O)(OC)OC: inactive
- CCOP(=S)(OCC)SCn1c(=O)oc2cc(Cl)ccc21: active
- C=CCC1=C(C)[C@@H](OC(=O)[C@@H]2[C@@H](C=C(C)C)C2(C)C)CC1=O: inactive
- CC1=C(C(=O)Nc2ccccc2)SCCO1: active
- O=C(Nc1ccccc1)Nc1ccnc(Cl)c1: active
- CC(C)Oc1cc(-n2nc(C(C)(C)C)oc2=O)c(Cl)cc1Cl: active
- CCc1nn(C)c(C(=O)NCc2ccc(C(C)(C)C)cc2)c1Cl: active
- CCCC1COC(Cn2cncn2)(c2ccc(Cl)cc2Cl)O1 (stereo not given): active
- CC1COC(Cn2cncn2)(c2ccc(Oc3ccc(Cl)cc3)cc2Cl)O1 (stereo not given): inactive
